B1: ATL3 (parent)
chain: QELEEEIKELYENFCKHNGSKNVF

Variants of: B1
Experiment: protein stability index of a GFP-peptide fusion (GPS, HEK-293T) (PSI 1-6); higher = more stable;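 also: lentivirally expressed fusions sorted by FACS into six bins by GFP to DsRed ratio, PSI derived from sequencing read proportions per bin multiplied by bin number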
Settings: c terminus: a fixed tail appended
Would you kindly list protein stability index for each of these variants?
Lab note: write the figure by itself, no unit.

Input line: Return value of protein stability index for input "L3R" , no commentary.
Output line: 4.33

Input line: Return value of protein stability index for input "E4C" , no commentary.
Output line: 2.81

Input line: Return value of protein stability index for input "K8V" , no commentary.
Output line: 3.19

Input line: Return value of protein stability index for input "C15R" , no commentary.
Output line: 3.3

Input line: Return value of protein stability index for input "N22W" , no commentary.
Output line: 1.48

Input line: Return value of protein stability index for input "N13A" , no commentary.
Output line: 1.72

Input line: Return value of protein stability index for input "N13C" , no commentary.
Output line: 2.26

Input line: Return value of protein stability index for input "E2W" , no commentary.
Output line: 1.9

Input line: Return value of protein stability index for input "H17I" , no commentary.
Output line: 2.94

Input line: Return value of protein stability index for input "S20A" , no commentary.
Output line: 2.66

Input line: Return value of protein stability index for input "E9M" , no commentary.
Output line: 2.47

Input line: Return value of protein stability index for input "E5V" , no commentary.
Output line: 2.15

Input line: Return value of protein stability index for input "E9L" , no commentary.
Output line: 1.64

Input line: Return value of protein stability index for input "E4L" , no commentary.
Output line: 2.47

Input line: Return value of protein stability index for input "Q1K" , no commentary.
Output line: 2.31

Input line: Return value of protein stability index for input "Y11W" , no commentary.
Output line: 2.96

Input line: Return value of protein stability index for input "V23Q" , no commentary.
Output line: 2.68

Input line: Return value of protein stability index for input "H17Y" , no commentary.
Output line: 2.42

Input line: Return value of protein stability index for input "E4R" , no commentary.
Output line: 2.66

Input line: Return value of protein stability index for input "E4N" , no commentary.
Output line: 3.96

Input line: Return value of protein stability index for input "E9N" , no commentary.
Output line: 2.77

Input line: Return value of protein stability index for input "K8L" , no commentary.
Output line: 2.24
